- System: Influenza A virus
- Format: functional, organism-based
- Assay setup: A/Padova/72/2011(H1N1), MDCK, 48 h
pEC50: −log10 of the molar value.

Sample smiles	pEC50
NC(=O)c1ncn([C@@H]2O[C@H](CO)[C@@H](O)[C@H]2O)n1	5.22

---

Readings of CC50 at 24 h for the listed compounds
- Assay protocol: Cytotoxicity against HEK293 cells assessed as cell viability after 24 hrs by MTT assay
- Format: cell-based
- Assay setup: human
Measurement type: CC50 at 24 h

Sample smiles	Measurement type	Val
CCOC(=O)c1c(NC(=O)c2ccccc2F)sc2c1CCC2	CC50 at 24 h	> 250 µM
NC(=O)c1c(NC(=O)c2ccccc2F)sc2c1CCCC2	CC50 at 24 h	31 µM
NC(=O)c1ncn([C@@H]2O[C@H](CO)[C@@H](O)[C@H]2O)n1	CC50 at 24 h	> 250 µM
CCOC(=O)c1c(NC(=O)c2ccc(OC)cc2)sc2c1CCCCC2	CC50 at 24 h	> 250 µM
O=C(Cc1ccc(F)cc1)Nc1sc2c(c1C(=O)Nc1ccccn1)CCCCC2	CC50 at 24 h	250 µM
O=C(Cc1ccc(Cl)cc1)Nc1sc2c(c1C(=O)Nc1ccccn1)CCCCC2	CC50 at 24 h	> 250 µM
CCOC(=O)c1c(NC(=O)c2ccccc2F)sc2c1CCCCC2	CC50 at 24 h	> 250 µM
COc1c(CC(=O)Nc2sc3c(c2C(=O)Nc2ccccn2)CCCCC3)sc2ccccc12	CC50 at 24 h	> 250 µM
CCOC(=O)c1c(NC(=O)c2ccccc2Cl)sc2c1CCCCC2	CC50 at 24 h	> 250 µM
O=C(Cc1ccc2ncccc2c1)Nc1sc2c(c1C(=O)Nc1ccccn1)CCCCC2	CC50 at 24 h	> 250 µM
CCOC(=O)c1c(NC(=O)c2ccc(Cl)cc2)sc2c1CCCCC2	CC50 at 24 h	> 250 µM
O=C(Cc1ccccc1)Nc1sc2c(c1C(=O)Nc1ccccn1)CCCCC2	CC50 at 24 h	220 µM
CSCC[C@H](N)C(=O)N[C@@H](CC(=O)O)C(=O)N[C@H](C(=O)N[C@@H](CC(N)=O)C(=O)N1CCC[C@H]1C(=O)N[C@H](C(=O)N[C@@H](CC(C)C)C(=O)N[C@@H](CC(C)C)C(=O)N[C@@H](Cc1ccccc1)C(=O)N[C@@H](CC(C)C)C(=O)N[C@@H](CCCCN)C(=O)N[C@H](C(=O)N1CCC[C@H]1C(=O)N[C@@H](C)C(=O)N[C@@H](CCC(N)=O)C(=O)O)C(C)C)[C@@H](C)O)C(C)C	CC50 at 24 h	> 100 µM
O=C(Nc1sc2c(c1C(=O)O)CCCCC2)c1ccccc1F	CC50 at 24 h	> 250 µM
O=C(Nc1sc2c(c1C(=O)O)CCC2)c1ccccc1F	CC50 at 24 h	> 250 µM
CCOC(=O)c1c(NC(=O)c2ccc(F)cc2)sc2c1CCCCC2	CC50 at 24 h	> 250 µM
